Measurement Notes: Absorbance at photostationary state (PSS) under simulated sunlight or 365 nm light
Assay type: physicochemical
Conditions: simulated sunlight with UV blocking film (cutoff 370 nm); 2.0×10^−5 M in triglyme
Form field: Absorbance at PSS, +UV (one value per entry).
Enter the number alone.

Consider the compound shown here: "c1ccc(-c2nc(-c3nc(-c4ccccc4)sc3-c3nc(-c4ccccc4)sc3-c3ccccc3)c(-c3ccccc3)s2)cc1" What is its recorded Absorbance at PSS, +UV?
0.008

Sample "CC(C)(C)c1ccc(-c2cc(C3=C(c4cc(-c5ccc(C(C)(C)C)cc5)sc4-c4ccc(C(C)(C)C)cc4)C(F)(F)C(F)(F)C3(F)F)c(-c3ccc(C(C)(C)C)cc3)s2)cc1" — what was its Absorbance at PSS, +UV?
0.04

Need Absorbance at PSS, +UV, item "COc1ccc(-c2sc(-c3ccc(/C=C/C=C/c4ccccc4)cc3)cc2C2=C(c3cc(-c4ccc(/C=C/C=C/c5ccccc5)cc4)sc3-c3ccc(OC)cc3)C(F)(F)C(F)(F)C2(F)F)cc1"
0.126

Need Absorbance at PSS, +UV of "CC(C)CCOc1ccc(-c2cc(C3=C(c4cc(-c5ccc(OCCC(C)C)cc5)sc4-c4ccc(OCCC(C)C)cc4)C(F)(F)C(F)(F)C3(F)F)c(-c3ccc(OCCC(C)C)cc3)s2)cc1" , thanks.
0.103
